This collection of values is drawn from paper PMC12136037.

biological target: ~100 representative kinases (Homo sapiens); construct: Recombinant protein kinase domains with a concentration of 2 μM; experiment: DSF 100 kinase selectivity screen; assay type: binding; details: protein MST3; average of three replicates;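 also: compound tested at 20 µM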
Sequence (Q9Y6E0 whole entry, the tested form may be a part): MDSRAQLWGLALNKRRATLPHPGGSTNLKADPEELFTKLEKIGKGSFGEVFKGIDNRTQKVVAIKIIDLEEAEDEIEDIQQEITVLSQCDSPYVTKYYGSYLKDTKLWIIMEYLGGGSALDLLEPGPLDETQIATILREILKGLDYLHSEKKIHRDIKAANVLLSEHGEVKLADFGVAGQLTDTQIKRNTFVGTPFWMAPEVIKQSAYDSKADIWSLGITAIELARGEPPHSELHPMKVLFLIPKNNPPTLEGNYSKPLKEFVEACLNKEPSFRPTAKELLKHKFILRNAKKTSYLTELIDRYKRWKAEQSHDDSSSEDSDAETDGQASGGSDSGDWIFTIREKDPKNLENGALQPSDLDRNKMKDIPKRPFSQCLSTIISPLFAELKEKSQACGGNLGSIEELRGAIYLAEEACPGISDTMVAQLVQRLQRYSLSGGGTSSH
VALUE KIND: dTm (K)

Here are 10 compounds together with their reported answers.
Form: item COc1cc2c(Oc3ccc(NC(=O)C4(C(=O)Nc5ccc(F)cc5)CC4)cc3F)ccnc2cc1OCCCN1CCOCC1 [Foretinib, reference compound] ; test system ~100 representative kinases (Homo sapiens); dTm: 4.06

Form: item COc1cc(NC(=O)C2(C(=O)Nc3cccc(-c4c[nH]c5ncnc(N6CCOCC6)c45)c3)CC2)ccc1F ; test system ~100 representative kinases (Homo sapiens); dTm: 6.57

Form: item O=C(Nc1cccc(-c2c[nH]c3ncnc(N4CCOCC4)c23)c1)C1(C(=O)Nc2cccc3c2CCC3)CC1 ; test system ~100 representative kinases (Homo sapiens); dTm: -2.04

Form: item Cc1ccc(NC(=O)C2(C(=O)Nc3cccc(-c4c[nH]c5ncnc(N6CCOCC6)c45)c3)CC2)cc1 ; test system ~100 representative kinases (Homo sapiens); dTm: 4.56

Form: item Cn1cc(-c2c[nH]c3ncnc(N4CCOCC4)c23)cc1C#N ; test system ~100 representative kinases (Homo sapiens); dTm: 2.72

Form: item O=C(Nc1ccc(F)cc1)C1(C(=O)Nc2cccc(-c3c[nH]c4ncnc(N5CCOCC5)c34)c2)CC1 ; test system ~100 representative kinases (Homo sapiens); dTm: 7.19

Form: item O=C(Nc1ccc(Cl)cc1)C1(C(=O)Nc2cccc(-c3c[nH]c4ncnc(N5CCOCC5)c34)c2)CC1 ; test system ~100 representative kinases (Homo sapiens); dTm: 4.95

Form: item CC(C)(C)c1cccc(NC(=O)C2(C(=O)Nc3cccc(-c4c[nH]c5ncnc(N6CCOCC6)c45)c3)CC2)c1 ; test system ~100 representative kinases (Homo sapiens); dTm: 0.95

Form: item O=C(Nc1cccc(-c2c[nH]c3ncnc(N4CCOCC4)c23)c1)C1(C(=O)Nc2ccc(F)c(Cl)c2)CC1 ; test system ~100 representative kinases (Homo sapiens); dTm: 6.96

Form: item O=C(Nc1cccc(-c2c[nH]c3ncnc(N4CCOCC4)c23)c1)C1(C(=O)Nc2cc(Br)c(F)cc2F)CC1 ; test system ~100 representative kinases (Homo sapiens); dTm: 0.83

1. Cc1ccc(-n2nc(C(C)(C)C)cc2NC(=O)Nc2cccc(-c3c[nH]c4nc(Cl)nc(N5CCOCC5)c34)c2)cc1
2. Cc1cc(NC(=O)C2(C(=O)Nc3ccc(F)cc3)CC2)cc(-c2c[nH]c3ncnc(N4CCOCC4)c23)c1
3. Cc1ccc(-n2nc(C(C)(C)C)cc2NC(=O)Nc2cccc(-c3c[nH]c4ncnc(N5CCOCC5)c34)c2)cc1
4. O=C(Nc1cc(F)cc(Br)c1)C1(C(=O)Nc2cccc(-c3c[nH]c4ncnc(N5CCOCC5)c34)c2)CC1
Prompt line: Put the items in sequence by dTm, from largest down. Arrange the labels as the request states and list them.
Response line: 3, 4, 1, 2
(3: 6.78 K, 4: 3.03 K, 1: 0.96 K, 2: -0.29 K)
